Assay: P. aeruginosa biofilm formation inhibitors, primary screen, strain PAO1, LB-PBS medium, absorbance 600 nm (AID 1176); also: test concentration not given here
Settings: P. aeruginosa PAO1 growth/biofilm, A600, 12 h; higher = more signal
Calls of active or inactive are those of the source. No rule for the calls is given here.
measure: z-score

Guide cases for z-score, answers given:
[
  {
    "molecule": "O=C1[C@H]2[C@H]3[C@H](O)[C@H](O)CC(=NOC[C@@H](O)COCc4ccco4)[C@@H]3CC[C@H]2C(=O)N1Cc1ccc2c(c1)OCO2",
    "z-score": "0.0578 (inactive)"
  },
  {
    "molecule": "C[C@@H]1CC[C@H]2C(=O)O[C@@H](COc3ccc(C(C)(C)C)cc3)CN2[C@H]1c1ccc(Br)cc1",
    "z-score": "0.11 (inactive)"
  },
  {
    "molecule": "CC(C)=NO[C@H](C)c1cn([C@@H]2COC[C@H]2O)nn1",
    "z-score": "0.101 (inactive)"
  },
  {
    "molecule": "CO[C@H]1COC(=O)CC=C[C@H](C)[C@H](OC)COC(=O)[C@@H](C)NC(=O)CC=C[C@@H]1C",
    "z-score": "-0.467 (inactive)"
  },
  {
    "molecule": "CC[C@@H](c1ccccc1)n1c(=O)n2n(c1=O)[C@H]1[C@H](O)[C@@H]3O[C@@H]3C(=NOCc3ccccc3)[C@H]1CC2",
    "z-score": "-0.0819 (inactive)"
  },
  {
    "molecule": "CCOC(=O)[C@H](CC(C)C)NC(=O)CCC1CC(OC(=O)NCCc2ccc(F)cc2)CC2(CCCC(COC(=O)NCCOC)O2)O1 (stereo partly drawn)",
    "z-score": "0.283 (inactive)"
  },
  {
    "molecule": "O=C1C2=CC[C@H]3C(=O)N(C[C@@H]4CCCO4)C(=O)[C@H]3[C@H]2[C@H](O)[C@@H]2O[C@H]12",
    "z-score": "-0.343 (inactive)"
  }
]

Could you now consider this next molecule?
Which z-score reading was recorded for the molecule COC(=O)[C@H](C)NC(=O)CCC1CC(OC(=O)NCc2cccc3ccccc23)CC2(CCCC(COC(=O)NCCC(C)C)O2)O1 (stereo partly drawn) ? -0.0691 (inactive)

----------
Molecular target: Calmodulin-1 (Homo sapiens)
Assay: CALM1 binders on microarrays, EGTA buffer, profiling panel, biochemical, small-molecule microarray, Cy5-labelled CALM1 (AID 1111);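 also: labelled calmodulin applied in Tris saline Tween buffer holding calcium plus EGTA and DTT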
Details: Cy5-CALM1 binding fluorescence, higher = more signal
We use 0.03 as the dividing line for composite z-score: on or above the line is Criterion met, below is Criterion not met.

[
  {
    "compound": "Cc1cc2c(nc1C)CCCCN2CC(O)CN1CCCc2nc(-c3ccc(Br)cc3)ccc21 (centres undefined)",
    "discrete label": "Criterion met"
  },
  {
    "compound": "COC(=O)[C@H](C)NC(=O)CCC1CC(OC(=O)NCCc2ccc(F)cc2)CC2(CCCC(COC(=O)NCCc3ccccc3OC)O2)O1 (some centres undefined)",
    "discrete label": "Criterion met"
  },
  {
    "compound": "CCOC(=O)[C@H](Cc1ccccc1)NC(=O)CCC1CC(OC(=O)NCCc2ccc(F)cc2)CC2(CCCC(COC(=O)NCCC(C)C)O2)O1 (some centres undefined)",
    "discrete label": "Criterion not met"
  },
  {
    "compound": "COC(=O)[C@H](C)NC(=O)CCC1CC(OC(=O)NCc2ccc3c(c2)OCO3)CC2(CCCC(COC(=O)NCCCN3CCCC3=O)O2)O1 (some centres undefined)",
    "discrete label": "Criterion met"
  }
]

Determine whether measured composite z-score meets or exceeds 0.03 for CSCC[C@@H]1NC(=O)CC=C[C@@H](C)COC(=O)[C@H](C)COC1=O Criterion not met

Determine whether measured composite z-score meets or exceeds 0.03 for CCc1cc2c(nc1CC)CCN(CCC(C)=NOC[C@@H](C)[C@H](OCc1ccccc1)C(C)C)C2 Criterion not met

Determine whether measured composite z-score meets or exceeds 0.03 for C#CCCCON=C1[C@H]2CCn3c(=O)n([C@@H](CC)c4ccccc4)c(=O)n3[C@H]2[C@H](O)[C@@H]2O[C@H]12 Criterion not met

Determine whether measured composite z-score meets or exceeds 0.03 for CC(=O)OC[C@H]1O[C@H](CC=NO[C@@H](C)c2cn([C@H](CO)Cc3ccccc3)nn2)C=C[C@@H]1OC(C)=O Criterion not met

Determine whether measured composite z-score meets or exceeds 0.03 for CC[C@@H](c1ccccc1)n1c(=O)n2n(c1=O)[C@H]1[C@H](O)[C@@H]3O[C@@H]3C(=NOCc3ccccc3)[C@H]1CC2 Criterion met
